Data origin: PubChem BioAssay (NCI)

# System: U251 CNS
Outcomes: Yes = active, No = inactive

[[record]]
compound = "C/C(=N\\NC(=O)c1sc(=S)n(C)c1N)c1cc2ccccc2o1"
system_under_test = "U251 CNS"
cat = "No"

[[record]]
compound = "CC(=O)N[C@@H](Cc1ccc(OP(=O)(O)O)cc1)C(=O)N[C@H]1CCC(=O)N2CCC[C@@H](C(=O)NCc3ccc(Cl)cc3)N2C1=O"
system_under_test = "U251 CNS"
cat = "No"

[[record]]
compound = "F"
system_under_test = "U251 CNS"
cat = "No"

[[record]]
compound = "CCNC(=O)[C@@H]1CCCN2C(=O)CC[C@H](NC(=O)[C@H](Cc3ccc(OP(=O)(O)O)cc3)NC(C)=O)C(=O)N12"
system_under_test = "U251 CNS"
cat = "No"

[[record]]
compound = "OC(c1cccc(-n2ccc(C(F)(F)F)n2)c1)c1cnccc1NC1CCCCCC1 (centres undefined)"
system_under_test = "U251 CNS"
cat = "No"

[[record]]
compound = "COc1cc(NS(C)(=O)=O)ccc1Nc1c2ccc([N+](=O)[O-])cc2nc2c(C)cccc12"
system_under_test = "U251 CNS"
cat = "Yes"

[[record]]
compound = "Cc1ccc2c(c1)C(C)Cc1c(ncnc1-n1cnc3ccccc31)N2C (centres undefined)"
system_under_test = "U251 CNS"
cat = "Yes"

[[record]]
compound = "COc1cc(C(=O)/C=C/c2c(C)n([O-])c3ccc(C)cc3[n+]2=O)cc(OC)c1OC"
system_under_test = "U251 CNS"
cat = "No"

[[record]]
compound = "COc1ccc(OC)c(/C=N/NC(=O)Cc2csc3nc(-c4ccc(Br)cc4)cn23)c1"
system_under_test = "U251 CNS"
cat = "No"

[[record]]
compound = "CC1(C)N=C(N)N=C(N)N1c1cccc(CCCCc2cccc(S(=O)(=O)F)c2)c1"
system_under_test = "U251 CNS"
cat = "No"

[[record]]
compound = "Nc1ccc2c(c1)C(=O)C(=O)c1c-2nc2ccccn12"
system_under_test = "U251 CNS"
cat = "No"

[[record]]
compound = "CCS(=O)(=O)N1CCC(C(C)n2c(C)c(C(=O)NCc3c(OC)cc(C)[nH]c3=O)c3ccccc32)CC1 (centres undefined)"
system_under_test = "U251 CNS"
cat = "No"

[[record]]
compound = "N=C(N)c1ccc(OCc2cccc(COc3ccc(C(=N)N)cc3)c2)cc1"
system_under_test = "U251 CNS"
cat = "No"

[[record]]
compound = "COc1cc2c(cc1O)CC[C@@H]1[C@@H]2CC[C@]2(C)[C@@H](NCCN(C)C)CC[C@@H]12"
system_under_test = "U251 CNS"
cat = "Yes"


----------
# System: LOX IMVI melanoma
# Experiment: NCI tumour cell line growth inhibition, 48 h
Assay metric: TGI

[[record]]
compound = "CC(C)(C)c1cc(C(=O)Nc2cc(Br)c(Br)cc2S(N)(=O)=O)cc(C(C)(C)C)c1O"
endpoint_value = "19.4 µM"

[[record]]
compound = "O=c1cc(NCCCCCO)[nH]c(=O)[nH]1"
endpoint_value = "> 100 µM"

[[record]]
compound = "CC1(C)N=C(N)N=C(N)N1c1cccc(CCCCc2cccc(S(=O)(=O)F)c2)c1"
endpoint_value = "> 100 µM"

[[record]]
compound = "CCCCCC(C)(C)CCC(=O)OC1OC(COC2OC(COC3OC(CO)C(O)C(O)C3O)C(O)C(O)C2O)C(O)C(O)C1O (centres undefined)"
endpoint_value = "> 100 µM"

[[record]]
compound = "Cc1ccc(C2=Nc3cc(C)c(Cl)cc3S(=O)(=O)NN2)cc1"
endpoint_value = "> 100 µM"

[[record]]
compound = "FC(F)(F)Oc1cccc(-c2cnc3ccc(-c4ccncc4)nn23)c1"
endpoint_value = "10.2 µM"

[[record]]
compound = "Cc1nc(-c2cccc(Nc3nc(-c4ccc(Cl)cc4)cs3)c2)cs1"
endpoint_value = "13.9 µM"

[[record]]
compound = "CCNC(=O)[C@@H]1CCCN2C(=O)CC[C@H](NC(=O)[C@H](Cc3ccc(OP(=O)(O)O)cc3)NC(C)=O)C(=O)N12"
endpoint_value = "> 25 µM"

[[record]]
compound = "N#CN=C(N)c1sc2nc3c(c(-c4ccc(Br)cc4)c2c1N)CCCC3"
endpoint_value = "41.2 µM"

[[record]]
compound = "CC(C)(C)c1cc(CC2C(=O)c3ccccc3C2=O)cc(C(C)(C)C)c1O"
endpoint_value = "16.2 µM"

[[record]]
compound = "CCOC(=O)c1ccc2[nH]c(-c3ccc(S(=O)(=O)F)cc3)cc(=O)c2c1"
endpoint_value = "> 100 µM"

[[record]]
compound = "CN(C)c1ccc2c(=O)c3ccccc3oc2n1"
endpoint_value = "> 100 µM"

[[record]]
compound = "CC1CC(C2=CC=CCS2)=Nc2ccccc2S1 (centres undefined)"
endpoint_value = "> 100 µM"

[[record]]
compound = "CCC1=NC(N/N=C/c2ccco2)=N/C1=C\\c1ccccc1O"
endpoint_value = "> 100 µM"

[[record]]
compound = "CS(=O)(=O)c1ccc(/C=N/NC(N)=S)cc1"
endpoint_value = "> 100 µM"

[[record]]
compound = "NC(Cc1ccc(S(=O)(=O)O)cc1)C(=O)NC(CCCCNC(=O)NCCCCC(NC(=O)C(N)Cc1ccc(S(=O)(=O)O)cc1)C(=O)NC(Cc1ccc(S(=O)(=O)O)cc1)C(=O)O)C(=O)NC(Cc1ccc(S(=O)(=O)O)cc1)C(=O)O (centres undefined)"
endpoint_value = "> 100 µM"

[[record]]
compound = "O=[N+]([O-])c1nc(-c2ccccn2)[nH]c1[N+](=O)[O-]"
endpoint_value = "> 100 µM"

[[record]]
compound = "COC(=O)C1=C(c2ccc(OC)c(OC)c2)OC(c2ccc(OC)c(OC)c2)C1 (centres undefined)"
endpoint_value = "> 100 µM"

[[record]]
compound = "CCSCC1CC(O)(c2ccccc2)C(c2ccccc2)C(c2ccc(Cl)cc2)O1 (centres undefined)"
endpoint_value = "3.05 µM"

[[record]]
compound = "Cc1ccc(S(=O)(=O)OC2CCN(C)CC2)cc1"
endpoint_value = "> 100 µM"

[[record]]
compound = "O=P1(C(O)/C=C/c2ccccc2)N(Cc2ccccc2)[C@H](c2ccccc2)[C@@H](c2ccccc2)N1Cc1ccccc1 (some centres undefined)"
endpoint_value = "> 72.5 µM"

[[record]]
compound = "C/C(CC/C(C)=N/O)=N\\O"
endpoint_value = "> 100 µM"

[[record]]
compound = "CC1(C)CCC[C@@]2(C)C1CCC1(C)C(CCc3ccoc3)/C(=C/OS(=O)(=O)O)CCC12 (some centres undefined) (tested in a mixture with another compound)"
endpoint_value = "> 100 µM"

[[record]]
compound = "COc1ccc2[nH]c(=O)c3c4ccccc4cn3c2c1"
endpoint_value = "2.11 µM"

[[record]]
compound = "CN1C(=O)CC(c2cccc(C3CC(=O)N(C)C3=O)n2)C1=O (centres undefined)"
endpoint_value = "> 100 µM"

[[record]]
compound = "NNC(=O)CSc1nc2ccc(I)cc2c(=O)n1Cc1ccccc1"
endpoint_value = "> 100 µM"

[[record]]
compound = "N/C(=N\\N=C/c1ccccc1O)NO"
endpoint_value = "> 100 µM"

[[record]]
compound = "COc1cc(C2SC(N)=Nc3c2c(C)nn3C(=O)c2ccccc2O)cc(OC)c1OC (centres undefined)"
endpoint_value = "> 10 µM"

[[record]]
compound = "Cc1cccc(NC(=O)CCc2ccc(N3C(N)=NC(N)=NC3(C)C)cc2)c1"
endpoint_value = "> 100 µM"

[[record]]
compound = "C=C1C(=O)O[C@H]2[C@H]1CC/C(CNC(=O)Cc1c[nH]c3ccccc13)=C\\CC[C@@]1(C)O[C@@H]21"
endpoint_value = "1.54 µM"

[[record]]
compound = "COc1cc(-c2cn(S(=O)(=O)c3ccc(C)cc3)c3ccccc23)nc(-c2cn(S(=O)(=O)c3ccc(C)cc3)c3ccccc23)n1"
endpoint_value = "> 100 µM"

[[record]]
compound = "O=[N+]([O-])c1ccc(S(=O)(=O)Cc2ccccc2)c([N+](=O)[O-])c1"
endpoint_value = "3.39 µM"

[[record]]
compound = "O=C(Nc1ccc(Cl)c(Cl)c1)c1cccc(NC2=C(Cl)C(=O)N(Cc3ccccc3)C2=O)c1"
endpoint_value = "> 100 µM"

[[record]]
compound = "COc1cc(C2SCC(=O)N2c2cc(Cl)c(Cl)cc2Cl)cc(OC)c1OC (centres undefined)"
endpoint_value = "> 100 µM"

[[record]]
compound = "Cc1ccc(S(=O)(=O)c2c(N)c3nc4ccccc4n3c3nc4ccccc4nc23)cc1"
endpoint_value = "> 100 µM"

[[record]]
compound = "CCOc1ccc2nc(-c3ccc(O)cc3)sc2c1"
endpoint_value = "> 100 µM"

[[record]]
compound = "CC(NS(=O)(=O)c1ccc([N+](=O)[O-])cc1)C(=O)O (centres undefined)"
endpoint_value = "> 100 µM"

[[record]]
compound = "CCOC(=O)Nc1cc2nnc(-c3ccccc3)nc2c(N)n1"
endpoint_value = "30.8 µM"

[[record]]
compound = "COc1ccc(OC)c(/C=N/NC(=O)Cc2csc3nc(-c4ccc(Br)cc4)cn23)c1"
endpoint_value = "47.4 µM"

